Tested on: USA300 LAC
Test: IC50 of inhibition of staphyloxanthin synthesis in drug-resistant strain
Format: cell-based
Conditions: Staphylococcus aureus, USA300, read-out: Inhibitory activity on staphyloxanthin IC50

Molecule	IC50, nM
CN(C/C=C/c1ccc(-c2ccccc2)cc1)Cc1coc2ccccc12 [Compound IA-25]	7.9

* * *

Molecular target: CrtN (Staphylococcus aureus, UniProt O07855)
Sequence (O07855 whole entry): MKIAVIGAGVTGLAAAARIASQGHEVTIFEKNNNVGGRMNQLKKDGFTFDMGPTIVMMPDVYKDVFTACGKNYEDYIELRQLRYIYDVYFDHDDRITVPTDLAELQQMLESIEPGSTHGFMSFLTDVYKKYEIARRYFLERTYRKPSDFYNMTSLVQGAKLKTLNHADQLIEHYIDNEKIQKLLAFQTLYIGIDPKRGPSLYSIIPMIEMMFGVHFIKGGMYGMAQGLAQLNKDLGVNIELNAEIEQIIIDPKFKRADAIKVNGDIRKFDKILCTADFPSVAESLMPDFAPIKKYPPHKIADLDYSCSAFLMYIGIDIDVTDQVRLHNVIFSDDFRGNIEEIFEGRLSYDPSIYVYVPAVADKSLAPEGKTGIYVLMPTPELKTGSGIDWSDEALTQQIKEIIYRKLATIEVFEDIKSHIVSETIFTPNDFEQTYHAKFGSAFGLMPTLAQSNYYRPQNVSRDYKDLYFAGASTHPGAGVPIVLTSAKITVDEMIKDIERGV
Quantity Kind: IC50

Compound	Test System	Quantity Kind	Value Observed
CN(C/C=C/c1ccc(-c2ccccc2)cc1)Cc1coc2ccccc12	CrtN (Staphylococcus aureus, UniProt O07855)	IC50	373 nM

* * *

Biological target: CYP enzyme subtype 1A2 (Homo sapiens, UniProt P05177)
Sequence (P05177 1-516): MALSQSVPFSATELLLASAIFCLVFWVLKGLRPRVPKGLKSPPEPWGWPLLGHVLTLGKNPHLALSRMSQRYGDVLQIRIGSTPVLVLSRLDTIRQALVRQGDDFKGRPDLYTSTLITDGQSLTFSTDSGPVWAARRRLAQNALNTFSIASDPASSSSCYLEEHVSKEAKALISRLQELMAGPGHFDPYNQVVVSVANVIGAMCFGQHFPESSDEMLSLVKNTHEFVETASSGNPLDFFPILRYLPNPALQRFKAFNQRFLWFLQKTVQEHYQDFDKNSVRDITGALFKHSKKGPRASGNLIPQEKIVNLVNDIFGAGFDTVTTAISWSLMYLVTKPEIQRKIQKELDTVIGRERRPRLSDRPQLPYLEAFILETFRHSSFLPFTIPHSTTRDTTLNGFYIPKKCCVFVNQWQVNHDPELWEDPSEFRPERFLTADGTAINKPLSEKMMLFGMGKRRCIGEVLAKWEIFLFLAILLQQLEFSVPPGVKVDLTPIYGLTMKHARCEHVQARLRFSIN
Assay: Inhibition assay on hepatic CYP450 enzyme
Type: in vitro ADME
Settings: CYP 1A2; read-out: Half inhibitory concentration (IC50)
Quantity Kind: IC50 (µM)

Compound	Quantity Kind	Value Observed
CN(C/C=C/c1ccc(-c2ccccc2)cc1)Cc1coc2ccccc12	IC50	5.69

* * *

System: Microsporum gypseum
Assay: In vitro antifungal assay (micro liquid-based dilution)
Type: cell-based
Conditions: Nannizzia gypsea, read-out: Antifungal Activities, MIC80
Quantity Kind: MIC80 (µg/mL)

Molecule	Value Observed
CC(=O)N1CCN(c2ccc(OCC3COC(Cn4ccnc4)(c4ccc(Cl)cc4Cl)O3)cc2)CC1 (stereo not shown)	2
CN(C/C=C/c1ccc(-c2ccccc2)cc1)Cc1coc2ccccc12	32
OC(Cn1cncn1)(Cn1cncn1)c1ccc(F)cc1F	8
C[C@@H](c1ncncc1F)[C@](O)(Cn1cncn1)c1ccc(F)cc1F	0.25

* * *

Test: in vivo
Quantity Kind: bioavailability

Compound	Quantity Kind	Value Observed
CN(C/C=C/c1ccc(-c2ccccc2)cc1)Cc1coc2ccccc12 [Compound IA-25]	bioavailability	15 to 45%

* * *

Target: CYP enzyme subtype 3A4M (Homo sapiens, UniProt P08684)
Sequence (P08684 whole entry): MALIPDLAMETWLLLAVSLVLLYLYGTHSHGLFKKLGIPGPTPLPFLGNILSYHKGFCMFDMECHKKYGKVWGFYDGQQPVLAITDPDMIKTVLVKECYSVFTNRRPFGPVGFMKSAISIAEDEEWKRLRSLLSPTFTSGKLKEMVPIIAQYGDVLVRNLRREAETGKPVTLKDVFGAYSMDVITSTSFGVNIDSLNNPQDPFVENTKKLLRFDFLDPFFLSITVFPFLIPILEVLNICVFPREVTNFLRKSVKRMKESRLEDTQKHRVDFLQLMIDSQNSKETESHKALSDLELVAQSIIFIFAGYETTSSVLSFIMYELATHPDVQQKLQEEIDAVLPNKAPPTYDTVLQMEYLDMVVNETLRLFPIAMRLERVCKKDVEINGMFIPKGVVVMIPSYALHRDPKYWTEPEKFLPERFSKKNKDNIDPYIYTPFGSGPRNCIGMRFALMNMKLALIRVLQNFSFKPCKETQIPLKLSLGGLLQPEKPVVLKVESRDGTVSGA
pIC50: −log10 of the molar value.
Quantity Kind: pIC50

Molecule	Value Observed
CN(C/C=C/c1ccc(-c2ccccc2)cc1)Cc1coc2ccccc12 [Compound IA-25]	< 5.00

* * *

Tested on: LRSA205 (CHN)
Assay: IC50 of inhibition of staphyloxanthin synthesis in MRSA strain
Type: cell-based
Details: Staphylococcus aureus, read-out: Inhibitory activity on staphyloxanthin IC50
Experimental: Selection of compound concentrations: based on the preliminary screening results, the ability of each compound to inhibit staphyloxanthin synthesis was determined. […] According to the assay results, 10 different concentration gradients were designed for each compound, such that the ability to inhibit staphyloxanthin synthesis comprised substantially from 0% to 100%. […]

Molecule	Result Unit	IC50
CN(C/C=C/c1ccc(-c2ccccc2)cc1)Cc1coc2ccccc12 [Compound IA-25]	nM	10.5

* * *

Molecular target: CYP enzyme subtype 2D6 (Homo sapiens, UniProt P10635)
Sequence (P10635 whole entry): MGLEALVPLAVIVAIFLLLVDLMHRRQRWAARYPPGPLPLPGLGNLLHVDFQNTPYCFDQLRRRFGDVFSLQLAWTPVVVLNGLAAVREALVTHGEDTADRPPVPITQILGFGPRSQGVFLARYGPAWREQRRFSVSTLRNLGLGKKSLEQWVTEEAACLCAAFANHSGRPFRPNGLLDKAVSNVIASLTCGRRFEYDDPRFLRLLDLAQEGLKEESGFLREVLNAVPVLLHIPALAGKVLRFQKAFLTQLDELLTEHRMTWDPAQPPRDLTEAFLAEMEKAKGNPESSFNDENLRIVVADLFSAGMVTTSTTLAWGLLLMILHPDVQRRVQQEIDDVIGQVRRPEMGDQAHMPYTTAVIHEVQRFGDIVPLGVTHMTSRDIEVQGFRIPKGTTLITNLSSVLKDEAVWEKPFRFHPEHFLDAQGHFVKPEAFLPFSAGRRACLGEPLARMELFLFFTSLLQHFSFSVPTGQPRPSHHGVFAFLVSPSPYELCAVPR
Test: Inhibition assay on hepatic CYP450 enzyme
Format: in vitro ADME
Conditions: CYP 2D6; read-out: Half inhibitory concentration (IC50)
pIC50: −log10 of the molar value.

Compound	pIC50
CN(C/C=C/c1ccc(-c2ccccc2)cc1)Cc1coc2ccccc12	5.49

* * *

Molecular target: CYP enzyme subtype 2C9 (Homo sapiens)
Sequence (P11712 whole entry): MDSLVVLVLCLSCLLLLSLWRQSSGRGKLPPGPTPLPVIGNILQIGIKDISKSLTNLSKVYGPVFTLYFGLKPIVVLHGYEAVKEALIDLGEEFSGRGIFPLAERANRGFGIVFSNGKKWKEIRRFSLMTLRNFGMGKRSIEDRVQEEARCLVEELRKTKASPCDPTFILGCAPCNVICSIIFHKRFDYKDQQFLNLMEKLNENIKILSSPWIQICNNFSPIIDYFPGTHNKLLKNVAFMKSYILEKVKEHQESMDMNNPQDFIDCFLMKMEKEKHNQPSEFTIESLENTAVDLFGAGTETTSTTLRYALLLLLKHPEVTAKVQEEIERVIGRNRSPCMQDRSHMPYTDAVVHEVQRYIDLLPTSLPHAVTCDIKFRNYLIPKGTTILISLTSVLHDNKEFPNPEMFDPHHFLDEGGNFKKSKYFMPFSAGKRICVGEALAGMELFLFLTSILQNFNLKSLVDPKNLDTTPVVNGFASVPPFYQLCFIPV
pIC50: −log10 of the molar value.
Quantity Kind: pIC50

Compound	Quantity Kind	Value Observed
CN(C/C=C/c1ccc(-c2ccccc2)cc1)Cc1coc2ccccc12	pIC50	< 5.00

* * *

Target: CYP enzyme subtype 2C8 (Homo sapiens)
Sequence (P10632 whole entry): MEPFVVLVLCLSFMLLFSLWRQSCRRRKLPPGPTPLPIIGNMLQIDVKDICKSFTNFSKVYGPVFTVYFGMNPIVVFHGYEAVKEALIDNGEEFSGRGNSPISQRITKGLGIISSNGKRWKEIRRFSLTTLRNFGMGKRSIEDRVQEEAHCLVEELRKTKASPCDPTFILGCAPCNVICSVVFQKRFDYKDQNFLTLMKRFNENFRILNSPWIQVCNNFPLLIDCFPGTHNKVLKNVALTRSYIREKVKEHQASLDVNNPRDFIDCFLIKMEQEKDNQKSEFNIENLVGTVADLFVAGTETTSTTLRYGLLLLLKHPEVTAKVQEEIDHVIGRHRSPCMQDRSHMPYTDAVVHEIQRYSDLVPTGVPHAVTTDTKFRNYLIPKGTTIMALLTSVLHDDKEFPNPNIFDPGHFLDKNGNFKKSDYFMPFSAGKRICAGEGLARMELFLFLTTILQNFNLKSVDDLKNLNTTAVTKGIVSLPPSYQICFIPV
pIC50: −log10 of the molar value.

Compound	pIC50
CN(C/C=C/c1ccc(-c2ccccc2)cc1)Cc1coc2ccccc12	< 5.00
